molecular target: recombinant human Cox-1 (r-hu Cox1) (Homo sapiens); construct: made in house; host or cells: baculovirus/Sf9 insect cells (microsomes); assay: Recombinant human PGHS-1 enzyme assay (RHUCX1); assay type: biochemical; conditions: 1 μM
Sequence (P23219 24-599): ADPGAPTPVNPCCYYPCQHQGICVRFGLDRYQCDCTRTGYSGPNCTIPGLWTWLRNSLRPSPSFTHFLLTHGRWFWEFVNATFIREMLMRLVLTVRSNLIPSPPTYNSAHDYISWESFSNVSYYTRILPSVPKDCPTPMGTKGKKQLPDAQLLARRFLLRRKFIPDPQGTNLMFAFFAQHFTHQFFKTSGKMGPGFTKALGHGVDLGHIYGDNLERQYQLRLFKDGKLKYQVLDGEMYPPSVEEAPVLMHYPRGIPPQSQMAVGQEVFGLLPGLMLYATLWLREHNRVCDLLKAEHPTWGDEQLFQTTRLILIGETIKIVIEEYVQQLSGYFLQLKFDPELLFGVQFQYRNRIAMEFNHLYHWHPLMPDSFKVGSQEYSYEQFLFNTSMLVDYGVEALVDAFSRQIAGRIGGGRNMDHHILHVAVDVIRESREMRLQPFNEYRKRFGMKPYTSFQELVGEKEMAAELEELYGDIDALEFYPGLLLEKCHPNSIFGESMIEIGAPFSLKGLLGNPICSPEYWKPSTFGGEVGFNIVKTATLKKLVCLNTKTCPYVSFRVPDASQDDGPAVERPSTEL
Readout kind: RHUCX1 % Inh. at Dose (μM)

{"columns": ["Test smiles", "Readout kind", "Meas value"],
 "data": [
  ["NS(=O)(=O)c1ccc(-c2cnn(-c3ccc(F)c(F)c3)c(=O)c2Oc2ccc(F)cc2)cc1", "RHUCX1 % Inh. at Dose (μM)", "36 @ 1%"],
  ["CC(C)=CCOc1c(-c2ccc(S(C)(=O)=O)cc2)cnn(-c2ccc(F)cc2)c1=O", "RHUCX1 % Inh. at Dose (μM)", "76 @ 1%"],
  ["Cc1cc(-c2c(-c3ccc(S(N)(=O)=O)cc3)cnn(-c3ccc(F)cc3)c2=O)ccc1F", "RHUCX1 % Inh. at Dose (μM)", "45 @ 1%"],
  ["CS(=O)(=O)c1ccc(-c2cnn(CC(F)(F)F)c(=O)c2OC2CCCCC2)cc1", "RHUCX1 % Inh. at Dose (μM)", "9 @ 1%"],
  ["CS(=O)(=O)c1ccc(-c2cnn(-c3csc4ccccc34)c(=O)c2-c2ccc(F)cc2)cc1", "RHUCX1 % Inh. at Dose (μM)", "50 @ 1%"],
  ["Cc1ccc(-c2c(-c3ccc(S(N)(=O)=O)cc3)cnn(-c3ccc(F)cc3)c2=O)cc1F", "RHUCX1 % Inh. at Dose (μM)", "60 @ 1%"],
  ["CS(=O)(=O)c1ccc(-c2cnn(-c3ccc([N+](=O)[O-])s3)c(=O)c2-c2ccc(F)cc2)cc1", "RHUCX1 % Inh. at Dose (μM)", "85 @ 1%"],
  ["NS(=O)(=O)c1ccc(-c2cnn(Cc3cccc(F)c3)c(=O)c2-c2ccc(F)cc2)cc1", "RHUCX1 % Inh. at Dose (μM)", "40 @ 1%"],
  ["CS(=O)(=O)c1ccc(-c2cnn(-c3ccc(F)c(F)c3)c(=O)c2-c2cccs2)cc1", "RHUCX1 % Inh. at Dose (μM)", "44 @ 1%"],
  ["Cc1nn(CC(F)(F)F)c(=O)c(-c2ccc(F)cc2)c1-c1ccc(S(C)(=O)=O)cc1", "RHUCX1 % Inh. at Dose (μM)", "68 @ 1%"]
]}
